- system.tested: HLA-DRB1*0301 (human)
- experiment.summary: competition binding
- condition.notes: modification not given
property.name: IC50 (µM)

Sample records with IC50:
>  <binder>
HTVQRMYGCDVGSDW [p17*]

>  <result.unit>
µM

>  <IC50>
5.61

$$$$
>  <binder>
IAVGYVDDTQFVRFD [p5]

>  <result.unit>
µM

>  <IC50>
0.316

$$$$

A: RGYHQYAYDGKDYIA [p22]
B: APWIEQEGPEYWDGE [p10]
Between A and B , whose recorded IC50 is greater? Indicate which entry you chose by stating its label.
B

Ref: patent US20110038881A1
